System: reserpine
Assay: Reserpine antagonistic effect, oral administration
Assay type: in vivo
Conditions: reserpine antagonism
Procedure: The tetrabenazine-reserpine antagonistic effect was investigated on mice in groups of ten animals each, at oral administration. The inhibition or suspension of the effect of the observed maximum dose was recorded, and the ED50 values were calculated on the basis of the dose vs. effect curves.
measured-attribute: Therapeutic index

Answered cases to consult:
{"molecule": "CN(C)CCON=C1CCCC1=Cc1ccccc1", "result": 33.0}
{"molecule": "CN(C)CCCON=C1CCCCC1=Cc1ccc(Cl)cc1", "result": 5.0}
{"molecule": "COc1ccc(C=C2CCCCCC2=NOCCCN(C)C)cc1", "result": 12.5}
{"molecule": "CN(C)CCCON=C1CCCCC1=Cc1ccccc1Cl", "result": 15.0}

Kindly note the recorded Therapeutic index for CN(C)CCC=C1c2ccccc2CCc2ccccc21 [Amitriptylin, reference compound] , which is 3.5

* * *

Assay: in vivo
Details: mouse, mice, oral administration, Table III
measured-attribute: LD50 (mg/kg)
Express your answer in mg/kg, writing the number without its unit.

{"compound": "NCCON=C1CCCCC1=Cc1ccccc1 [Example 4]", "value-units": "mg/kg", "recorded-number": 400}

Kindly note the recorded LD50 for CN(C)CCCON=C1CCCCCC1=Cc1ccc(Cl)cc1 [Example 12] , which is 1450

* * *

Test: in vivo
Conditions: mouse, po
measured-attribute: LD50 (mg/kg)
Express your answer in mg/kg, writing the number without its unit.

Kindly note the recorded LD50 for `CN(C)CCCON=C1CCCCC1=Cc1ccccc1` , which is 560

* * *

Below is a list of entries, each paired with its recorded LD50 value.
Assay: in vivo
Details: mouse, mice, oral administration, Table IV
Express your answer in mg/kg, writing the number without its unit.

Answered cases to consult:
{"compound": "CN(C)CCCON=C1CCCCC1=Cc1ccc(Cl)cc1", "recorded-number": 900}
{"compound": "CN(C)CCON=C1CCCC1=Cc1ccccc1", "recorded-number": 600}
{"compound": "COc1ccc(C=C2CCCCCC2=NOCCCN(C)C)cc1", "recorded-number": 1000}

Kindly note the recorded LD50 for `CN(C)CCCON=C1CCCCC1=Cc1ccccc1Cl` , which is 1500

Kindly note the recorded LD50 for CN(C)CCC=C1c2ccccc2CCc2ccccc21 [Amitriptylin, reference compound] , which is 225

* * *

Test system: ischiadic nerve of rats
Assay: Local analgesic effect (method of Truant and d'Amato), motor paralysis and its duration
Assay type: in vivo
Settings: local analgesic effect, referred to Lidocaine
Below is a list of entries, each paired with its recorded Relative efficiency value.
Reply with the value as a number alone.

Answered cases to consult:
{"smiles-notation": "CC(C)N(CCON=C1CCCC1=Cc1ccccc1)C(C)C", "Relative efficiency": 1.1}
{"smiles-notation": "CN(C)CCON=C1CCCC1=Cc1ccccc1", "Relative efficiency": 1.8}
{"smiles-notation": "CN(C)CCCON=C1CCCCC1=Cc1ccccc1", "Relative efficiency": 1.7}

Kindly note the recorded Relative efficiency for `CCN(CC)CCON=C1CCCC1=Cc1ccccc1` , which is 1.8

Kindly note the recorded Relative efficiency for `COc1ccccc1C=C1CCCCC1=NOCCCN(C)C` , which is 1.7

Kindly note the recorded Relative efficiency for `CCN(CC)CCON=C1CCCCC1=Cc1ccccc1` , which is 3.2

* * *

Test system: tetrabenazine
Test: Tetrabenazine antagonistic effect, oral administration
Format: in vivo
Conditions: Mus musculus, po, read-out: Tetrabenazine antagonism, ED50
Below is a list of entries, each paired with its recorded ED50 value.
Express your answer in mg/kg, writing the number without its unit.

{"compound": "CN(C)CCCON=C1CCCCC1=Cc1ccccc1", "value-units": "mg/kg", "ED50": 80}

Kindly note the recorded ED50 for `CN(C)CCCON=C1CCCCC1=Cc1ccc(Cl)cc1` , which is 34

Kindly note the recorded ED50 for `CN(C)CCCON=C1CCCCC1=Cc1ccccc1Cl` , which is 22

Kindly note the recorded ED50 for `CN(C)CCON=C1CCCC1=Cc1ccccc1` , which is 120

Kindly note the recorded ED50 for CN(C)CCC=C1c2ccccc2CCc2ccccc21 [Amitriptylin, reference compound] , which is 13

Kindly note the recorded ED50 for `COc1ccc(C=C2CCCCCC2=NOCCCN(C)C)cc1` , which is 70
